Test system: MS2 coat protein
assay-overview: apparent KD of MS2 coat protein; designed switch direction (-1 OFF switch, 1 ON switch): -1; higher = weaker reporter binding
recorded-conditions: input ligand: FMN 200 uM
Record yes (1) whenever apparent KD of MS2 coat protein is at 30 nM or higher; record no (0) when lower.

Some solved cases for reference:
{"columns": ["chain", "system-under-test", "class-label"],
 "data": [
  ["GUGAGGCCAGUGAGGAUAUGUGUACAACUACGUGCAUAGAAGGCACAUGAGGAUCACCCAUGUGAAUUCCCAGG [Eternabot (L1) Solution 65] (Eterna round: R97, puzzle: Brourd's mod of Exclusion 4)", "MS2 coat protein", "no (0)"],
  ["UAUUAGCAAGCGAGAUCCCACAUGAGGAUCACCCAUGUAAAGCAUCCAGAAUUACUGGGUGCAAAAGCUCGUCUUUA [Winner reversed engineered 5] (Eterna round: R97, puzzle: Sensor, turn-off variant 1)", "MS2 coat protein", "no (0)"],
  ["UUGGUUGUGGUAGGAUAUCCGUUGGAAACUGUUGGAGAAGGACCACAGUCACUGGGUCUUUGUUUGGUGGAGUGGAAGAACCAU [pwkr exNG1 F6.18] (Eterna round: R96, puzzle: Exclusion NG 1)", "MS2 coat protein", "yes (1)"],
  ["GCAGCAUAGAUAACAUACUGUUACAUGAGGAUCACCCAUGUACAGGAUAUGGUCUGGAUUACAGGCCAGAAGGGUACAAGCUGC [Eli exng3 - 021] (Eterna round: R96, puzzle: Exclusion NG 3)", "MS2 coat protein", "no (0)"]
]}

Okay, now this sequence:
Prompt line: Reported apparent KD of MS2 coat protein at or above 30 nM? GUCUUGAUAGGAUAUACAUGAGGAUCACCCAUGUCCCACCCGUUACCUCUGACCCUAUGUAGAAGGAUCGUUUG [Exy#17] (Eterna round: R97, puzzle: Exclusion 3)
Response line: yes (1)

---

Test system: K4 kissing-loop RNA reporter;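 note: bound reporter read as fluorescence of individual clusters on recovered sequencing chips by microscopy, with normalized cluster intensities fitted with a binding model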
assay-overview: apparent KD of K4 kissing-loop reporter; higher = weaker reporter binding
recorded-conditions: Eterna round: R107; input ligand: none
Decide by apparent KD of K4 kissing-loop reporter: equal to or exceeding 400 nM means criterion met, less means criterion not met.

Worked cases, answers included:
{"columns": ["chain", "class-label"],
 "data": [
  ["CAUACGCAUGGAGGAUAUGGGAUUUCUCAUAUUAACCUGUAUCAGGUAUCUCAGUGAUGUUGAGACUCAGAAGGCCAUGUGUAUG [Ex FMN B 25]", "criterion not met"],
  ["GGAGUGAUGUUCCAUUUUUAAAUCUCCGAUACCAGUAUGGAAACAUACCCUUGGCAGCGGUAAACCGCAGAUUAGGAAACUAGUC [Theophylline A K4 1]", "criterion met"]
]}

Prompt line: Threshold query (apparent KD of K4 kissing-loop reporter >= 400 nM) on UGUCAUUGGUCGGCCGCCACUAGGACCGGGUAUAACCUAGUGAUGUUAGUAAAUACGGCCGCCACUAGGACCGGGACCGAUGACU [KL-SSTryp-B18 #DoubleAptamer]
Response line: criterion met

Prompt line: // inclusive: apparent KD of K4 kissing-loop reporter at least 400 nM? input: AAGAAGGUCAAAGACCUUCGUGCACCUGAUACCAGUCGCGAAAGCGACCCUUGGCAGCAGGGCAGUGAUGUUGCCAAGUGCACAA [Omei KL Theo A SS A v1]
Response line: criterion met

Prompt line: API: above_or_equal(metric=apparent KD of K4 kissing-loop reporter, cutoff=400 nM) for item UUGUUUGGUUGAGAGGUUGGGCGAGAUGAUACCAGUAGAGAAGAGUACCCUUGGCAGCAUAAGAAAGAUAUAGUGAUGUUGUAUA [SSTheophA.P]
Response line: criterion met

---

Tested on: MS2 coat protein
assay-overview: apparent KD of MS2 coat protein; designed switch direction (-1 OFF switch, 1 ON switch): -1; higher = weaker reporter binding
recorded-conditions: input ligand: none
Recorded apparent KD of MS2 coat protein determines the group label, using A (below 30 nM), B (30 nM to below 60 nM), C (60 nM or more)

# example entries with known answers
{"columns": ["chain", "class-label"],
 "data": [
  ["GAGUAGUAAGGAUAUGUCUCUGGUGGCUUCGGUCACUAGAGGCAGAAGGUACAUGAGGAUCACCCAUGUUCCUC [ExDelusion 7 - Jieux - Exclusion 4] (Eterna round: R97, puzzle: Exclusion 4)", "B"],
  ["UCUGGUCGAGGAUAUACAUGAGGAUCACCCAUGUGAUUAGCAGUCCUCGGACUGCAAUGUAGAAGGCGACCAGA [E3/2-A3] (Eterna round: R97, puzzle: Exclusion 3)", "C"],
  ["AAGGGUGCUUUCAGAACGACAUGAGGAUCACCCAUGUAGACUGAGGAUAUCUACUCCUAAGGACGGGAGAAGGUAGUGUAAUGC [Ex NG3 #66] (Eterna round: R96, puzzle: Exclusion NG 3)", "A"],
  ["GCACGGUUGGUAGGAUAUCCUUGCGAUUAGCAAGGAGAAGGACCACAUGAGGAUCACCCAUGUACCUCAAUUAUCCUUCCGUGC [Eli exng1 - 025] (Eterna round: R96, puzzle: Exclusion NG 1)", "A"],
  ["AAUAUUUUAGGAUAUGGCGGAAUAGACAUGAGGAUCACCCAUGUUAGAGGCGUGGUGAAGUUAGAAGGGAGGUGUU [Eternabot (L1) Solution 6] (Eterna round: R97, puzzle: Exclusion 5)", "C"],
  ["AUUAAAUAAGGAUAUACAUGAGGAUCACCCAUGUGUAGCAAGGUGUUGCGAUCCGCAAGUAGAAGGUGUAUAAU [Eternabot (L2) Solution 2] (Eterna round: R97, puzzle: Exclusion 3)", "B"],
  ["UUAAUUAAUUAACGCAGCAAGAUCACAUGAGGAUCACCCAUGUAGGAUAUCAGCUCGUUUAGAGCUGAGAAGGACAUAGCUGCG [ExNG3/1-A2] (Eterna round: R96, puzzle: Exclusion NG 3)", "A"]
]}

Please find the next sequence below.
Prompt line: Tag the class for GACCUACAUGAGGAUCACCCAUGUCAGGAUAUGUGGCGGAGUACGAACAGUCCAAGCGACAGAAGGGACAACAG [Eternabot (Original) Solution 24] (Eterna round: R97, puzzle: Exclusion 1)
Response line: A

---

Tested on: MS2 coat protein
assay-overview: apparent KD of MS2 coat protein; higher = weaker reporter binding
recorded-conditions: Eterna round: R107; input ligand: theophylline 20 uM
Please go through the items and note down their apparent KD of MS2 coat protein.
Numbers only, in nM.

{"columns": ["chain", "apparent KD of MS2 coat protein, nM"],
 "data": [
  ["CGGUUUGUGAUGGAUACCAGCAGUGUGGCUGUUUAUCCUGACAUGAGGAUCACCCAUGUGUGCCCUUGGCAGCUGUUGUGGGCUG [8.aC]", 105],
  ["ACACAUGAGGAUCACCCAUGUCCAAUAGAUACCAGUGAUACGGUGCACCCUUGGCAGCUGUUACUGAGUGAUGGUUCCCUCGGAA [Same State Theophylline A GF3]", 81.9]
]}

Hey, quick one: what's apparent KD of MS2 coat protein for each of these?
1. UAAUCCGGUCCUCGAUAACAUGGGUGAAUACGAGGACCGGUACGGCCGCCACUCGAUAACAUGAGGAUCACCCAUGUAAUAAUAA [|T'-M'-Trp-Ms2|_Design15]
2. AACGUGAACGUGGUAUACCCGUGUGCCGAAGGAGCGCCCGAAAGGGCAGGUAGGUCGCGGACGACAUGAGGAUCACCCAUGUUUG
3. GGACUAACCUGAAGGAGCGACACGCACAAAGUGCAAAUUCCUCCACACGAGGAUCACCCGUGUCAGGUAGGUCGCAGGUUAGUCG [ArgBX 28]
4. AUGUUUGUGUGAGAUACCAGUGAGGCCACAUGAGGAUCACCCAUGUCCCUCACUCCGGCCCACCCUUGGCAGCUCUUAUAGUAAA [Exclusion Theophylline B GF 25]

Response line:
1. 111
2. 97.2
3. 30.8
4. 12.9

---

System: MS2 coat protein
assay-overview: apparent KD of MS2 coat protein; designed switch direction (-1 OFF switch, 1 ON switch): 1; higher = weaker reporter binding
recorded-conditions: input ligand: none
quantity-name: apparent KD of MS2 coat protein (nM)
Give bare numbers, in nM.

{"columns": ["chain", "system-under-test", "quantity-name", "recorded-value"],
 "data": [
  ["UUACUCAUGUAAGGAUAUGCAGCCGAAACGGCUGCAGAAGGUACUAUAAUACAUGAGGAUCACCCAUGUCUCUAUUAUAAAGUU [Mat - Same State NG 1 - JL mod - D95] (Eterna round: R96, puzzle: Same State NG 1)", "MS2 coat protein", "apparent KD of MS2 coat protein", 49.5],
  ["UGUUAGUAGACAGGAUAUUGAAUGUUAAGUAUUAACAUGAGGAUCACCCAUGUAUUUGAUUGGUACAAGAAGGGUCAAGUUUGU [JR_SSNG2_Sub013] (Eterna round: R96, puzzle: Same State NG 2)", "MS2 coat protein", "apparent KD of MS2 coat protein", 320]
]}

Prompt line: Please look up its apparent KD of MS2 coat protein: AAACAUGAGCGAGGAUAUGCGGACGAUUACGCUGUAGAAGGCGCAUGUAAAACAACAUGAGGAUCACCCAUGUCAUGUACAUGA (Eterna round: R96, puzzle: Same State NG 1)
Response line: 83.6
